Target: VEGF165 binding to Avastin® Fab (Homo sapiens)
Construct: biotin (chemical labelling)
Sequence (P15692 27-191 isoform P15692-4): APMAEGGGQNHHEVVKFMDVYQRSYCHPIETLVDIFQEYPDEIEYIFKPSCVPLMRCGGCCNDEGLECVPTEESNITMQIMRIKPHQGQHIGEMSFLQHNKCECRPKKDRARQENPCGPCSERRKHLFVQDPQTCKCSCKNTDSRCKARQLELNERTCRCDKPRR
Assay: competitive ELISA, inhibition of VEGF165 binding to Avastin Fab
Conditions: 10 nM biotinylated VEGF165, Avastin Fab coated plate
recorded_metric: IC50 (nM)

substance: X-VEPNCDIHVMWEWECFERL-Tz4-lfrew-Tz4-eeird [Triligand 2]
recorded_metric: IC50
u: nM
experimental_value: 400

The measurements presented in this section are drawn from patent US8710180B2.
